property-label: pIC50
# pIC50: negative log10 of molar concentration; output just the value

CCC[C@H](NC(=O)[C@@H]1[C@H]2CCC[C@H]2CN1C(=O)OCc1ccccc1)C(=O)C(=O)NC1CC1 [Jun7424] tested on EV-D68 2A^pro (Enterovirus D68) gave pIC50: 5.36

CC(C)(C)C(NC(=O)CC12CC3CC(CC(C3)C1)C2)C(=O)N1CC2CCCC2C1C(=O)NC(Cc1ccc(F)cc1)C(=O)C(=O)NC1CC1 (stereo not drawn) [Jun11763] tested on EV-D68 2A^pro (Enterovirus D68) gave pIC50: 6.82

CCC[C@H](NC(=O)[C@@H]1[C@H]2CCC[C@H]2CN1C(=O)[C@@H](NC(=O)NC(C)(C)C)C(C)(C)C)C(=O)C(=O)NC1CC1 [Jun9475] tested on EV-D68 2A^pro (Enterovirus D68) gave pIC50: 5.94

---

Target: EV-D68 2A^pro (WT-2A^pro, strain US/KY/14-18953, expressed in E. coli BL21(DE3) from pE-SUMOstar vector) (enterovirus D68, UniProt A0A097BW19)
Construct: E. coli-codon-optimised gene, pE-SUMOstar, His-SUMO tag (removed with SUMO protease for nontagged form), E. coli BL21(DE3), Ni-NTA; 7JRE is the C107A mutant
Assay: FRET-based enzymatic assay of EV-D68 2A^pro inhibition (FRET substrate Dabcyl-KIRIVNT/GPGFGGE-Edans)
Would you kindly list IC50 for each of these compounds?
Use nM as the unit, but write only the number.

Kindly note the recorded IC50 for `CC(C)(C)[C@H](NC(=O)CC12CC3CC(CC(C3)C1)C2)C(=O)N1C[C@@H]2CCC[C@@H]2[C@H]1C(=O)N[C@@H](Cc1ccsc1)C(=O)C(=O)NC1CC1` , which is 120

Kindly note the recorded IC50 for `CCC[C@H](NC(=O)[C@@H]1[C@H]2CCC[C@H]2CN1C(=O)[C@@H](NC(=O)OCc1ccccc1)C(C)(C)C)C(=O)C(=O)NC1CC1` , which is 760

Kindly note the recorded IC50 for `CC(C)(C)[C@H](NC(=O)CC12CC3CC(CC(C3)C1)C2)C(=O)N1C[C@@H]2CCC[C@@H]2[C@H]1C(=O)N[C@@H](CC1CC1)C(=O)C(=O)NC1CC1` , which is 140

---

Would you kindly list IC50 for each of these compounds?
Target: EV-D68 2A^pro (Enterovirus D68, UniProt A0A097BW19)
Experiment: FRET-based enzymatic assay of EV-D68 2Apro inhibition
Format: biochemical
Settings: read-out: Enzymatic inhibitory activity IC50

`CCC[C@H](NC(=O)[C@@H]1[C@H]2CCC[C@H]2CN1C(=O)[C@@H](NC(=O)CC1CCC(F)(F)CC1)C(C)(C)C)C(=O)C(=O)NC1CC1` tested on EV-D68 2A^pro (Enterovirus D68, UniProt A0A097BW19) gave IC50: 80 to 140 nM

`CCC[C@H](NC(=O)[C@@H]1[C@H]2CCC[C@H]2CN1C(=O)[C@@H](NC(=O)CC1CCCCC1)C(C)(C)C)C(=O)C(=O)NC1CC1` tested on EV-D68 2A^pro (Enterovirus D68, UniProt A0A097BW19) gave IC50: 80 to 140 nM

`CCC[C@H](NC(=O)[C@@H]1[C@H]2CCC[C@H]2CN1C(=O)[C@@H](NC(=O)CC1CCCC1)C(C)(C)C)C(=O)C(=O)NC1CC1` tested on EV-D68 2A^pro (Enterovirus D68, UniProt A0A097BW19) gave IC50: 80 to 140 nM
